# target: Nucleoli Translocation, AR (gene 367)
# method description: UPITT_HCI_U2OS_AR_TIF2_Nucleoli_Antagonist: University of Pittsburgh U2OS Androgen Receptor-Transcriptional Intermediary Factor 2 (AR-TIF2) Antagonism High Content Imaging Assay for Nucleoli Translocation (AID 2283997)
# From the text: UPITT_AR_TIF2_PPIB is a cell-based, high-content imaging assay that uses U2OS, a human osteosarcoma cell line, expressing a human androgen receptor fused to red fluorescent protein and the coactivator TIF2 fused to green fluorescent protein. UPITT_HCI_U2OS_AR_TIF2_Nucleoli_Antagonist is one of four assay components measured from the UPITT_AR_TIF2_PPIB assay. […]
Inconclusive results are not listed. Active and inactive are the calls of the source. The calls were made as follows: active = hit-call score of the fitted dose curve at least 0.9, where 1 is the maximum; inconclusive = response in the unintended direction; inactive = score below 0.9.
Hi there, use one of these labels in your reply, thanks! active, inactive

Answered cases to consult:
CCC(C)N(C)C(=O)c1cc2ccccc2c(-c2ccccc2Cl)n1 (stereo unspecified); inactive
CC1=C(C)S(=O)(=O)CCS1(=O)=O; inactive
C#CC(O)C(CC)CCCC (stereo unspecified); active

Exercise: Per the assay record, what outcome was assigned to Nc1nc(=S)c2[nH]cnc2[nH]1 ?
Key: inactive

Exercise: Proceed to O=C(NS(=O)(=O)/C=C/c1cccs1)c1ccc(F)cc1Br
Key: inactive

Exercise: What do you have for CCOCCOCCO ?
Key: inactive

* * *

# Read-out: Cytochrome P450 4A22 (Homo sapiens)
# method description: LTEA_HepaRG_CYP4A22: Life Technologies and Expression Analysis (LTEA) Assay for Cytochrome P450 4A22 (CYP4A22) using HepaRG (AID 2283495)
# test settings: mRNA level, 48 h; actives raise or lower the signal
Active and inactive are the calls of the source. The calls were made as follows: active = hit-call score of the fitted dose curve at least 0.9, where 1 is the maximum; inactive = score below 0.9.
observable: AC50

Examples from the recorded data:
CCCC[C@H]1CN(CC2CCOCC2)C(=O)OC12CCN(C1(C)CCN(C(=O)c3c(C)ncnc3C)CC1)CC2; inactive
CC(C)COC(=O)CCCCC(=O)OCC(C)C; inactive
Cc1cc(SC2=C(O)C[C@@](CCc3ccc(N)cc3)(C(C)C)OC2=O)c(C(C)(C)C)cc1CO; 1.67 µM (active)
O=C(N[C@@H](c1ccccc1)[C@@H]1CCCCN1)c1cccc(C(F)(F)F)c1Cl; 23.1 µM (active)

Let us move to another entry and its AC50.
Exercise: Given CCCC(=O)O , state its recorded AC50.
Key: inactive

* * *

# Read-out: Transforming Growth Factor (TGFA), TGFA (gene 7039)
# method description: LTEA_HepaRG_TGFA: Life Technologies and Expression Analysis (LTEA) Assay for Transforming Growth Factor (TGFA) using HepaRG (AID 2283532)
# test settings: mRNA level, 48 h; actives raise or lower the signal
# Procedure: LTEA_HepaRG is a cell based, multiplexed-readout assay that uses HepaRG, a human liver cell line, with measurements taken at 48 hours after chemical dosing on a 96-well plate.LTEA_HepaRG_TGFA is one of 102 assay component(s) measured in the LTEA HepaRG cell culture assay. It is a marker of Cell proliferation, survival, death.Data from the assay component LTEA_HepaRG_TGFA was analyzed into 1 endpoint. […]
Activity calls are given as the source filed them. How the source made its calls: active means hit-call score of the fitted dose curve at least 0.9, where 1 is the maximum; inactive means score below 0.9.
Respond only with the outcome that fits, drawn from Yes for active, No for inactive

O=C(Oc1ccccc1)c1cccc(C(=O)Oc2ccccc2)c1; No

Now for a further compound.
Exercise: Hey, what did the test say about C/C=C/C=C/C(=O)O ?
Key: No
